- tested_on: MBP-hnRNP A2/B1 (1-251) (UniProt P22626 1-251)
- Sequence (P22626 1-251): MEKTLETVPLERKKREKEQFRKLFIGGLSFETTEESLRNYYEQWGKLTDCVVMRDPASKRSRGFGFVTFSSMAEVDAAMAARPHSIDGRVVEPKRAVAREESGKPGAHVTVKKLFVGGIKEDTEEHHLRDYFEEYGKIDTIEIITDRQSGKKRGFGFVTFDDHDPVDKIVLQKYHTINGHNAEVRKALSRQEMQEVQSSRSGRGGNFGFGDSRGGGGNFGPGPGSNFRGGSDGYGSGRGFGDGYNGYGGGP
- assay_details: fluorescence polarization
parameter: Kd (nM)
Answer in nM, number only, no unit symbol.

Ask | Report Kd for AAGGACUAGC (ssRNA) [FAM-H1 (10 mer 1n)] please.
Reply | 51.7

Entry source: paper PMC10038052
